result-type: melting point (°C)

Recorded results for 2 compounds are shown here.
[
  {
    "compound": "C=C(C)C(=O)OCCCCc1cc(-c2ccc(OC(=O)C(=C)C)cc2)ccc1OC(=O)C(=C)C",
    "melting point / °C": 76
  },
  {
    "compound": "C=CC(=O)Oc1cccc(-c2cccc(OC(=O)C=C)c2)c1 [(2), 3′-Acryloyloxybiphenyl-3-yl acrylate]",
    "melting point / °C": 48
  }
]

P: C=C(C)C(=O)OCCCOc1cccc(-c2cccc(OC(=O)C(=C)C)c2)c1
Q: C=C(C)C(=O)Oc1cccc(-c2cccc(OC(=O)C(=C)C)c2)c1
Request: Between the entries labeled P and Q , whose measured melting point is lower? # answer = label of selected item
Result: P
